Assay System: human ether-à-go-go-related gene (hERG) potassium channel (human);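 note: peak tail current of the secondary pulse compared with the same well before compound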
Experimental Protocol: primary screen, population patch clamp on CHO cells stably expressing hERG; higher = less effect of the substance
Screen size: about 310,000 compounds; about 14,000 (4.5%) showed an effect of 50% or more. The effect is printed as a negative number. The list comes from a sample in which strong results are over-represented; it also holds close analogues and randomly drawn compounds.
Form field: hERG current change (%, negative = inhibition) at 10uM (one value per entry).
Measured Property: hERG current change (%, negative = inhibition) at 10uM (%)

molecule="CC1CCN(CCNC(=O)C2CCCN(c3ncnc4c3nc3n4CCCCC3)C2)CC1 (stereo not drawn)" experimental_value=12.5
molecule=C=CCn1c(SCc2nc3c(c(=O)[nH]c(=O)n3CCCC)n2CCC)nnc1-c1ccccc1 experimental_value=-60.5
molecule=Cc1ccc2c(c1)C(c1ccc(N3CCOCC3)cc1)=NNC(c1cccs1)=N2 experimental_value=1.66
molecule="CC(C(=O)NC1C(=O)N2C(C(=O)O)=C(CSc3nnnn3C)CSC12)n1cc(Br)cn1 (stereo not drawn)" experimental_value=25.1
molecule=COC(=O)c1cc(NC(=O)c2cccnc2)ccc1N1CCOCC1 experimental_value=13.9
molecule=CCCn1c(=O)[nH]c(=O)c2c1nc(-c1ccc(C#N)cc1)n2CCOC experimental_value=-2.78
molecule=CC(C)CSc1oc(-c2ccco2)nc1S(=O)(=O)c1ccccc1 experimental_value=-19.7
molecule=O=c1ccc2ccccc2n1Cc1cccc(F)c1 experimental_value=9.61
molecule="O=C(NCCc1ccccc1)C1CCCN(c2ncnc3c2nc2n3CCCCC2)C1 (stereo not drawn)" experimental_value=-59.9
molecule=CC(C)CC(=O)Nc1ccnn1C1CCN(C(=O)c2ccc(Cl)cc2F)CC1 experimental_value=-30.4
molecule=Cc1c(NC(=O)c2cc(-c3ccccc3)on2)c(=O)n(-c2ccccc2)n1C experimental_value=-27.7
molecule=CCCCn1c(=O)[nH]c(=O)c2c1nc(COc1ccc(C#N)cc1)n2CCC experimental_value=-57.2
molecule=CN1CCN(NC(=O)c2ccc(Cl)c([N+](=O)[O-])c2)CC1 experimental_value=8.74
molecule=CCCCn1c(=O)[nH]c(=O)c2c1nc(-c1ccc(-c3ccccc3)cc1)n2C experimental_value=20.2
molecule=O=[N+]([O-])c1ccc(S(=O)(=O)Nc2ccc(-c3ccc(N4CCCC4)nn3)cc2)cc1 experimental_value=-8.67
molecule=Cc1ccc(-c2cc(C(=O)Nc3c(C)n(C)n(-c4ccccc4)c3=O)no2)cc1 experimental_value=-25.3
molecule=Cc1c(NC(=O)c2cc3nc(-c4ccc(Cl)cc4)cc(C(F)(F)F)n3n2)c(=O)n(-c2ccccc2)n1C experimental_value=-55.3
molecule=CCCCn1c(=O)[nH]c(=O)c2c1nc(-c1ccc(C(F)(F)F)cc1)n2C experimental_value=3.8
molecule=COCCNc1oc(-c2ccco2)nc1S(=O)(=O)c1ccccc1 experimental_value=2.69
molecule=COC(=O)c1c(SCc2cccc3ccccc23)nc(=O)[nH]c1C experimental_value=7.87
molecule=COc1cc(NC(=O)Cc2ccc(F)cc2)cc(OC)c1OC experimental_value=16.2

----------
Assay System: human ether-à-go-go-related gene (hERG) potassium channel (human, UniProt Q12809);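 note: peak tail current of the secondary pulse compared with the same well before compound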
Sequence (Q12809 whole entry, looked up): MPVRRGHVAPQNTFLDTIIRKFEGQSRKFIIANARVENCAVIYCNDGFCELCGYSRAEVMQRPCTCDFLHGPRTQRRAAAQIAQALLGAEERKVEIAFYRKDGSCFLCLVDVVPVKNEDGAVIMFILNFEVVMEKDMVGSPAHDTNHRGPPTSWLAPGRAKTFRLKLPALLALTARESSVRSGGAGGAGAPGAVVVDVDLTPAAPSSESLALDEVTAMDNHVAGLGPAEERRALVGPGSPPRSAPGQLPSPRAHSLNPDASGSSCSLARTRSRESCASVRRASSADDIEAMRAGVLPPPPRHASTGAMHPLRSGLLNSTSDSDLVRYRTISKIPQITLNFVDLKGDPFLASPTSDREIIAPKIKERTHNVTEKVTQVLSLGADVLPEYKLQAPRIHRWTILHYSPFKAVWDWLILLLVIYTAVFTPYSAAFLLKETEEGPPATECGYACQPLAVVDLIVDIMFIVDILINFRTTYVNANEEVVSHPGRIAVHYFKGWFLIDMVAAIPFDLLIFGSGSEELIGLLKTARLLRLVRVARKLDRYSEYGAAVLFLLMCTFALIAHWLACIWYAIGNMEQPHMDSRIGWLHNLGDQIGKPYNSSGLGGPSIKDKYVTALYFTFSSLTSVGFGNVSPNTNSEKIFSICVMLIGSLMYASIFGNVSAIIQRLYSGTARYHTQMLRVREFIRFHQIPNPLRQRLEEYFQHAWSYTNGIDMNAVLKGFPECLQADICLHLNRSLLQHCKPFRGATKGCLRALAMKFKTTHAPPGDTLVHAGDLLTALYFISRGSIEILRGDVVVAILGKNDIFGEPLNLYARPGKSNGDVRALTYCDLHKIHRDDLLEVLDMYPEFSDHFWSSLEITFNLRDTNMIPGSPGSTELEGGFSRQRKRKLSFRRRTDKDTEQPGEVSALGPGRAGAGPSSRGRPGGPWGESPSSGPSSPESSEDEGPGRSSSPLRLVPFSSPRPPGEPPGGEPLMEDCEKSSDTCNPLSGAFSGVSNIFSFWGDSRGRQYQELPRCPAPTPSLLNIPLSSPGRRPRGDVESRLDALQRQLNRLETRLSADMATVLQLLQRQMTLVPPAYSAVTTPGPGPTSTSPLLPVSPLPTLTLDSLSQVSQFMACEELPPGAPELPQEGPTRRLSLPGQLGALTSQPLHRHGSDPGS
Experimental Protocol: primary screen, population patch clamp on CHO cells stably expressing hERG; higher = less effect of the substance
In all, about 310,000 compounds went through this assay and about 14,000 (4.5%) showed an effect of 50% or more. Effects have a minus sign here. The full list was thinned out, with strong results kept by preference.
Measured Property: hERG current change (%, negative = inhibition) at 10uM (%)

structure_notation=COc1ccccc1N1CCN(C(=O)Nc2ccc([N+](=O)[O-])cc2)CC1 units_text=% experimental_value=-52.4
structure_notation=CNCC(=O)N1CCN(c2ncc(C(F)(F)F)cc2Cl)CC1.Cl units_text=% experimental_value=-22.3
structure_notation=Cc1ccccc1CNC(=O)Nc1cccs1 units_text=% experimental_value=3.67
structure_notation=Cc1cc(C)c(S(=O)(=O)N2CCN(C(=O)CCn3nc(C)c(C)c3C)CC2)c(C)c1 units_text=% experimental_value=-35.8
structure_notation=O=C(NCC(=O)N1CCN(c2ccc(C(F)(F)F)cn2)CC1)c1ccc(Br)o1 units_text=% experimental_value=-71.8
structure_notation=COc1ccccc1N1CCN(C(=O)c2cc(C(=O)N3CCN(c4ccccc4OC)CC3)cc([N+](=O)[O-])c2)CC1 units_text=% experimental_value=-0.436
structure_notation=Clc1ccc(-c2nnc3c4ccccc4nc(N4CCOCC4)n23)cc1Cl units_text=% experimental_value=-64.7
structure_notation=O=[N+]([O-])c1ccc(N2CCN(C(=S)Nc3cccc(F)c3)CC2)cc1 units_text=% experimental_value=-52

----------
Form field: hERG current change (%, negative = inhibition) at 10uM (one value per entry).
Assay System: human ether-à-go-go-related gene (hERG) potassium channel (human, UniProt Q12809);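 note: peak tail current of the secondary pulse compared with the same well before compound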
Experimental Protocol: primary screen, population patch clamp on CHO cells stably expressing hERG; higher = less effect of the substance
The whole screen tested about 310,000 compounds, of which about 14,000 (4.5%) showed an effect of 50% or more. Effects have a minus sign here. This excerpt belongs to a sample that is enriched for strong results.
Measured Property: hERG current change (%, negative = inhibition) at 10uM

compound=Cc1cccc(CN2CCC(CNC(=O)Cn3ncc4c([nH]c5ccccc54)c3=O)CC2)c1 experimental_value=-23.1%
compound=O=[N+]([O-])c1ccc(N2CCN(c3ccc(O)cc3)CC2)cn1 experimental_value=-52.8%
compound=O=C(Nc1ccccc1)c1cc(-n2cnnc2)ccc1Cl experimental_value=9.46%
compound=Cc1cc(C)n2nc(CC(=O)NC3CCCCCCC3)nc2n1 experimental_value=-70.9%
compound=COc1cccc(N2CCN(C(=O)c3ccc(-c4ccccc4)cc3)CC2)c1 experimental_value=-49.5%
compound=COC(=O)[C@@]1(Cc2ccc(OC)cc2)[C@H]2c3cc(C(=O)N4CCCC4)n(Cc4c(CO)[nH]cc(C)c4=O)c3C[C@H]2CN1C(=O)c1ccccc1 experimental_value=3.94%
compound=CCOc1ccc2nc(N(CCCN(C)C)C(=O)c3ccc(S(=O)(=O)N4CCCC4)cc3)sc2c1.Cl experimental_value=-70.4%
compound=OCC1(CCOc2ccccc2)CCN(Cc2cn[nH]c2-c2ccccc2)CC1 experimental_value=-74.4%
compound="Cc1ccc(N2CCN(C(=O)c3cc(-c4ccc(F)cc4)[nH]c3C)CC2C)cc1 (centres unmarked)" experimental_value=-13.3%
compound=O=[N+]([O-])c1ccc(N2CCN(c3cccc(Cl)c3)CC2)cn1 experimental_value=-63.2%
compound="Cc1ccnn1C(C)C(=O)O (centres unmarked)" experimental_value=26.3%
compound=C=CCc1ccc(OCc2ccc(C(=O)OC)o2)c(OC)c1 experimental_value=-12.1%
compound=COc1ccccc1NC(=O)CSc1ncn(-c2ccccc2)n1 experimental_value=-41.1%
compound=Cc1cccc(-c2nc(CNC(=O)c3ccco3)cs2)c1 experimental_value=-57.9%
compound=O=[N+]([O-])c1ccc(N2CCOCC2)cn1 experimental_value=15.4%
compound=O=C(NNc1cccc(Cl)n1)C(F)(F)F experimental_value=17.2%
compound="Cc1ccccc1CC1(CO)CCCN(Cc2cn[nH]c2-c2ccccc2)C1 (centres unmarked)" experimental_value=-23.9%
compound=CCc1ccc2nc(N(CCCN(C)C)C(=O)c3ccc(S(=O)(=O)N4CCc5ccccc5C4)cc3)sc2c1.Cl experimental_value=-7.91%
compound=O=[N+]([O-])c1ccc(N2CCCCC2)cn1 experimental_value=8.92%
compound=Cc1cc(C)n2nc(CC(=O)NC3CCCCCC3)nc2n1 experimental_value=5.03%
compound=Nn1c(Nc2ccccc2)nc2ccccc2c1=O experimental_value=14.2%
compound=COc1ccc(OC)c(N(CC(=O)NCc2ccccc2)S(=O)(=O)c2ccc(OC)c(OC)c2)c1 experimental_value=18.3%
compound="Cc1ccc(NC(=O)N(C2=NCC(C)S2)c2ccccc2)cc1 (centres unmarked)" experimental_value=16.3%
compound=CCOc1ccc2nc(N(CCCN(C)C)C(=O)c3ccc(S(=O)(=O)N4CCc5ccccc5C4)cc3)sc2c1.Cl experimental_value=-1.08%
compound=O=C(Cn1ncc2c([nH]c3ccccc32)c1=O)Nc1ccc(CN2CCCCC2)cc1 experimental_value=-65.8%
compound="OCC1(CC2CCCCO2)CCN(Cc2nc3ccccc3[nH]2)CC1 (centres unmarked)" experimental_value=18%
compound="OCCC1CN(Cc2nc3ccc(F)cc3[nH]2)CCN1C1CCCC1 (centres unmarked)" experimental_value=-15.9%
compound=O=[N+]([O-])c1ccc(N2CCN(c3ccccc3Cl)CC2)cn1 experimental_value=-34.3%
compound="CC1(C)CC(=O)C2=C(C1)NC(=O)C21C(C(=O)OC(C)(C)C)=C(N)Oc2ccc(Br)cc21 (centres unmarked)" experimental_value=-13.1%

----------
Assay System: human ether-à-go-go-related gene (hERG) potassium channel (human, UniProt Q12809);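 note: peak tail current of the secondary pulse compared with the same well before compound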
Experimental Protocol: primary screen, population patch clamp on CHO cells stably expressing hERG; higher = less effect of the substance
Among all 310,000 compounds or so, about 14,000 (4.5%) showed an effect of 50% or more. The effect is printed as a negative number. Many of the other results were omitted from the sample, so strong results are more common in it than they were.
Form field: hERG current change (%, negative = inhibition) at 10uM (one value per entry).
Measured Property: hERG current change (%, negative = inhibition) at 10uM (%)

compound=Cc1cc(C)c(CN2CCC(n3nccc3NC(=O)CCOc3ccccc3)CC2)cc1C experimental_value=-26.1
compound=CCc1cccc(C)c1NC(=O)CCOc1ccccc1 experimental_value=3.79
compound=CCc1ccc(-c2cc(C(F)(F)F)n3nc(C(=O)Nc4cnn(Cc5ccccc5C)c4)cc3n2)s1 experimental_value=5.41
compound=Clc1ccccc1CSc1nnc(-c2cccnc2)n1Cc1ccco1 experimental_value=-43.1
compound=O=C(CSc1nnc(-c2cccnc2)n1Cc1ccccc1)NCc1ccco1 experimental_value=-1.17
compound=CC(C)(C)c1ccc(Cn2c(=O)cnc3ccccc32)cc1 experimental_value=-4.85
compound=Cc1ccc(C)c(NNC(N)=S)c1 experimental_value=14
compound=CCOc1ccc(CN(C)C(=O)c2ccc(=O)[nH]c2)cc1 experimental_value=16.6
compound="CC(C)(C)c1ccc(Cn2c(=N)n(CC(O)c3ccco3)c3ccccc32)cc1.Cl (stereo not shown)" experimental_value=-71.9
compound=O=C(Nc1nc2ccccc2n1Cc1ccc(Cl)cc1)c1ccco1 experimental_value=5.47
compound=COc1cccc(CN2CCC(n3nccc3NC(=O)CCOc3ccccc3)CC2)c1 experimental_value=-62
compound=NS(=O)(=O)c1ccc(-c2cccc(/C=C3\SC(=O)NC3=O)c2)cc1 experimental_value=7.87
compound=O=C(CCOc1ccccc1)Nc1ccnn1C1CCN(Cc2ccc(CO)o2)CC1 experimental_value=6.52
compound=Clc1cccc(CSc2nnc(-c3cccnc3)n2Cc2ccco2)c1 experimental_value=-74.3
compound=Clc1cccc(CSc2nnc(-c3ccccn3)n2Cc2ccco2)c1 experimental_value=-35.7
compound=CCOc1ccccc1NC(=O)c1nnn(CC(=O)Nc2cc(C)cc(C)c2)c1N experimental_value=15.7
compound=COc1ccc(F)c(CN2CCC(n3nccc3NC(=O)CCCc3ccccc3)CC2)c1 experimental_value=-86.7
compound=O=C(CCCc1ccccc1)Nc1ccnn1C1CCN(Cc2ccccc2F)CC1 experimental_value=-49
compound="Cl.N=c1n(Cc2ccc(Cl)cc2)c2ccccc2n1CC(O)c1ccco1 (stereo not shown)" experimental_value=-64.1
